target.desc: SALL4 ZFC4 WT (HT-SELEX) (Mus musculus, UniProt Q8BX22 870-940)
Sequence: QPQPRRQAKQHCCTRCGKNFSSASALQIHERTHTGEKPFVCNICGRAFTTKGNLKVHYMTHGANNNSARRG
assay.procedure: HT-SELEX; high values mean tight binding
measurement.conditions: protein: recombinant; vector His6-GST; dsDNA, one strand shown
Assign binding signal to each entry below.
Give bare numbers, in fold-change vs cycle 0.

The cases that follow already have their binding signal on record.
sequence: GGACCA
measurement.unit: fold-change vs cycle 0
endpoint.result: 0.389

sequence: ACAGCT
measurement.unit: fold-change vs cycle 0
endpoint.result: 0.616

sequence: CAGTCG
measurement.unit: fold-change vs cycle 0
endpoint.result: 0.32

sequence: AAACAT
measurement.unit: fold-change vs cycle 0
endpoint.result: 1.93

sequence: AATGAC
measurement.unit: fold-change vs cycle 0
endpoint.result: 1.18

sequence: TACTCA
measurement.unit: fold-change vs cycle 0
endpoint.result: 1.43

sequence: CATAAC
measurement.unit: fold-change vs cycle 0
endpoint.result: 1.83

sequence: GTCCAC
measurement.unit: fold-change vs cycle 0
endpoint.result: 0.374

sequence: AACTTA
measurement.unit: fold-change vs cycle 0
endpoint.result: 2.13

sequence: GAGCAC
measurement.unit: fold-change vs cycle 0
endpoint.result: 0.415

Batch of 3 sequences: report binding signal for each.
1. TCTAAA
2. AGTAGC
3. AAAGGT

(A)
[1.79, 0.643, 1.26]
